# Test: Water solubility at 0°C
# Assay type: physicochemical
# Condition Set: 0°C, H₂O
Recorded Endpoint: solubility (µg/mL)
Your answer should be a plain number; it is taken to be in µg/mL.

Query: Would you mind telling me what solubility value was observed for OC[C@H]1O[C@@H]2O[C@H]3[C@H](O)[C@@H](O)[C@@H](O[C@H]4[C@H](O)[C@@H](O)[C@@H](O[C@H]5[C@H](O)[C@@H](O)[C@@H](O[C@H]6[C@H](O)[C@@H](O)[C@@H](O[C@H]7[C@H](O)[C@@H](O)[C@@H](O[C@H]8[C@H](O)[C@@H](O)[C@@H](O[C@H]1[C@H](O)[C@H]2O)O[C@@H]8CO)O[C@@H]7CO)O[C@@H]6CO)O[C@@H]5CO)O[C@@H]4CO)O[C@@H]3CO [Beta-CD, β-cyclodextrin, reference compound] ?
Result: 7000

Numbers sourced from patent EP0423240B1.
